Read-out: Bcl-2 (BID) gene, BID (gene 637)
Assay: LTEA_HepaRG_BID: Life Technologies and Expression Analysis (LTEA) Assay for Bcl-2 (BID) gene using HepaRG (AID 2283476)
Settings: mRNA level, 48 h; actives raise or lower the signal
Activity calls are given as the source filed them. Rule for the calls: active = hit-call score of the fitted dose curve at least 0.9, where 1 is the maximum; inactive = score below 0.9.
measure: outcome

| compound | measure | data value |
| --- | --- | --- |
| CCCCC(CC)COC(=O)c1ccccc1C(=O)O (stereo not drawn) | outcome | inactive |
| C#C[C@]1(O)CC[C@H]2[C@@H]3CCC4=CC(=O)CC[C@@H]4[C@H]3CC[C@@]21CC | outcome | inactive |
| CCCCC(CC)CN1C(=O)C2C3C=CC(C3)C2C1=O (stereo not drawn) | outcome | inactive |

* * *

Read-out: Tumor necrosis factor receptor superfamily member 6 (Homo sapiens)
Assay: LTEA_HepaRG_FAS: Life Technologies and Expression Analysis (LTEA) Assay for Fas cell surface death receptor (FAS) using HepaRG (AID 2283447)
Conditions: mRNA level, 48 h; actives raise or lower the signal
Calls of active or inactive are those of the source. Rule for the calls: active = hit-call score of the fitted dose curve at least 0.9, where 1 is the maximum; inactive = score below 0.9.
Outcome codes: active, inactive

| compound | assigned category |
| --- | --- |
| O=C(O)C1(C(=O)Nc2ccc(Cl)cc2Cl)CC1 | inactive |
| CCCCOC(=O)C(C)Oc1ccc(Oc2ccc(C(F)(F)F)cn2)cc1 (centres undefined) | inactive |
| O=C(c1ccccc1)C1CCCCC1 | inactive |
| C=CCOC(Cn1ccnc1)c1ccc(Cl)cc1Cl (centres undefined) | active |

* * *

Test: APR_HepG2_CellLoss_1hr: Apredica 1-hour HepG2 Assay for Cell Loss (AID 2282668);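 note: curves fitted both ways against DMSO so gain or loss of cells counts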
Settings: high-content imaging
Active and inactive are the calls of the source. How the source made its calls: active means hit-call score of the fitted dose curve at least 0.9, where 1 is the maximum; inactive means score below 0.9.
measure: outcome

| molecule | measure | data value |
| --- | --- | --- |
| CCCOC(=O)NCCCN(C)C | outcome | inactive |
| O=C(Nc1ccc([N+](=O)[O-])cc1Cl)c1cc(Cl)ccc1O | outcome | inactive |
| COC(=O)c1ccccc1S(=O)(=O)NC(=O)Nc1nc(OC(F)F)cc(OC(F)F)n1 | outcome | inactive |
| CCCN(CCC)C(=O)SCC | outcome | inactive |
| CCOC(=O)C(C)Oc1ccc(Oc2nc3ccc(Cl)cc3o2)cc1 (stereo not drawn) | outcome | inactive |
| CCSC(=O)N(CC(C)C)CC(C)C | outcome | inactive |
| CCCCCOC(=O)COc1cc(N2C(=O)C3=C(CCCC3)C2=O)c(F)cc1Cl | outcome | inactive |
| CCNc1nc(N)nc(Cl)n1 | outcome | inactive |

* * *

Read-out: Heat shock 70 kDa protein 1 (HSPA1A), gene 3303
Test: LTEA_HepaRG_HSPA1A: Life Technologies and Expression Analysis (LTEA) Assay for Heat shock 70 kDa protein 1 (HSPA1A) using HepaRG (AID 2283502)
Settings: mRNA level, 48 h; actives raise or lower the signal
Calls of active or inactive are those of the source. Rule for the calls: active = hit-call score of the fitted dose curve at least 0.9, where 1 is the maximum; inactive = score below 0.9.
Outcome codes: active, inactive

| molecule | assigned category |
| --- | --- |
| O=C(Nc1ccc([N+](=O)[O-])cc1Cl)c1cc(Cl)ccc1O | inactive |
| c1ccc2[nH]c(-c3cscn3)nc2c1 | inactive |
| CCCCOC(=O)[C@@H](C)Oc1ccc(Oc2ccc(C(F)(F)F)cn2)cc1 | inactive |
| CCOC(=O)C(C)Oc1ccc(Oc2nc3ccc(Cl)cc3o2)cc1 (stereo not drawn) | inactive |
| O=C(O)c1ccccc1 | inactive |
| O=C(c1ccc(O)cc1O)c1ccc(O)cc1O | inactive |
| CCCN(CCC)C(=O)SCC | inactive |
| CCC(C)OC(=O)N1CCCCC1CCO (stereo not drawn) | inactive |
| CCCCOCCOCCOCc1cc2c(cc1CCC)OCO2 | active |
| CCSC(=O)N(CC(C)C)CC(C)C | inactive |
| C[C@]12C[C@H](O)[C@H]3[C@@H](CCC4=CC(=O)CC[C@@]43C)[C@@H]1CC[C@@H]2C(=O)CO | inactive |
| S=C([S-])NCCNC(=S)[S-].[Mn+2] | inactive |
| CC(C)CCCCCCc1ccc(O)cc1 | inactive |

* * *

Target: Peroxisome proliferator-activated receptor gamma (Homo sapiens) (UniProt P37231)
Sequence (P37231 whole entry, looked up): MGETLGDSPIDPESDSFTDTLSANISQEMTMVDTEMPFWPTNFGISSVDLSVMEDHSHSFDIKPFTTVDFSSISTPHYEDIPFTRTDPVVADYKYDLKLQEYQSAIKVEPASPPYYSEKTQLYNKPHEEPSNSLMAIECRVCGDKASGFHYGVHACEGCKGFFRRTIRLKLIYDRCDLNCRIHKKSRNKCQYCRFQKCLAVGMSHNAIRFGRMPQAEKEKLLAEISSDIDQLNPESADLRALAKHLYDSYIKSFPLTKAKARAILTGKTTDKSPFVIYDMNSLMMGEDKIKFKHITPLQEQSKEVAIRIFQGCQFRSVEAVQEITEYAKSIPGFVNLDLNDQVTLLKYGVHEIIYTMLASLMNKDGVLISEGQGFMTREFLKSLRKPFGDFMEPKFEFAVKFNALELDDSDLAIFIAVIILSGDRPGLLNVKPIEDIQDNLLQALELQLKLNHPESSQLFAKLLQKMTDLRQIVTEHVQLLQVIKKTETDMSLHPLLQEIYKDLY
Assay: ATG_PPARg_TRANS: Attagene TRANS-FACTORIAL HepG2 Assay for human Peroxisome Proliferator-activated Receptor-gamma (PPARg) (AID 2283007)
Results filed as inconclusive are left out. Calls of active or inactive are those of the source. How the source made its calls: active means hit-call score of the fitted dose curve at least 0.9, where 1 is the maximum; inconclusive means response in the unintended direction; inactive means score below 0.9.

| structure string | AC50 |
| --- | --- |
| CCCN(CCC)C(=O)SCC | inactive |
| O=C(O)C1(C(=O)Nc2ccc(Cl)cc2Cl)CC1 | 35.1 µM (active) |
| CC(=O)[C@H]1CC[C@H]2[C@@H]3CCC4=CC(=O)CC[C@]4(C)[C@H]3CC[C@]12C | inactive |

* * *

Test: APR_HepG2_NuclearSize_24hr: Apredica 24-hour HepG2 Assay for Nuclear Size (AID 2282907)
Conditions: high-content imaging, actives raise or lower the signal
Description: APR_HepG2_24hr is a cell-based, multiplexed-readout assay that uses HepG2, a human liver cell line, with measurements taken at 24 hours after chemical dosing in a 384-well plate.APR_HepG2_NuclearSize_24hr is one of 10 assay component(s) measured or calculated from the APR_HepG2_24hr assay. […] This assay endpoint, APR_HepG2_NuclearSize_24hr, was analyzed with bidirectional fitting relative to DMSO as the negative control and baseline of activity. […]
Activity calls are given as the source filed them. How the source made its calls: active means hit-call score of the fitted dose curve at least 0.9, where 1 is the maximum; inactive means score below 0.9.
Outcome codes: Y (active), N (inactive)

| molecule | assigned category |
| --- | --- |
| CCOC(=O)NCCOc1ccc(Oc2ccccc2)cc1 | N |
| CCCCOC(=O)C(C)Oc1ccc(Oc2ccc(C(F)(F)F)cn2)cc1 (stereo unspecified) | N |
| COc1c(Cl)ccc(Cl)c1C(=O)O | N |
| COC(=O)c1ccccc1C(=O)O | N |
| O=C(O)C1(C(=O)Nc2ccc(Cl)cc2Cl)CC1 | N |
| CCCCCOC(=O)COc1cc(N2C(=O)C3=C(CCCC3)C2=O)c(F)cc1Cl | N |
| CC(=O)S[C@@H]1CC2=CC(=O)CC[C@]2(C)[C@H]2CC[C@@]3(C)[C@@H](CC[C@@]34CCC(=O)O4)[C@H]12 | N |
| C[C@]12C[C@H](O)[C@H]3[C@@H](CCC4=CC(=O)CC[C@@]43C)[C@@H]1CC[C@@H]2C(=O)CO | Y |
| CCCOC(=O)c1ccc(C(=O)OCCC)nc1 | N |
| CC1(C)C(C=C(Cl)Cl)C1C(=O)OCc1cccc(Oc2ccccc2)c1 (stereo unspecified) | N |
| CCCN(CCC)c1c([N+](=O)[O-])cc(C(F)(F)F)c(N)c1[N+](=O)[O-] | N |

* * *

Read-out: urokinase plasminogen activator (uPA), PLAU (gene 5328)
Test: BSK_BE3C_uPA: BioMAP Diversity Plus: BE3C Assay for urokinase plasminogen activator (uPA) Biomarker Activity (AID 2283038);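 note: uPA protein level quantified by ELISA in cell cultures; uPA read one day after compound addition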
Details: primary human bronchial epithelial cells; actives raise or lower the signal
Activity calls are given as the source filed them. Rule for the calls: active = hit-call score of the fitted dose curve at least 0.9, where 1 is the maximum; inactive = score below 0.9.
measure: outcome

| structure string | measure | data value |
| --- | --- | --- |
| CC(C)(c1ccc(O)cc1)c1ccc(O)cc1 | outcome | inactive |
| CCCOC(=O)NCCCN(C)C | outcome | inactive |
| CCSC(=O)N(CC(C)C)CC(C)C | outcome | inactive |
| COC(=O)c1c(Cl)nn(C)c1S(=O)(=O)NC(=O)Nc1nc(OC)cc(OC)n1 | outcome | inactive |
| CN(C)C(=O)Nc1ccc(Cl)c(Cl)c1 | outcome | inactive |

* * *

Read-out: Cytochrome P450 (CYP1A2), CYP1A2 (gene 1544)
Experiment: LTEA_HepaRG_CYP1A2: Life Technologies and Expression Analysis (LTEA) Assay for Cytochrome P450 (CYP1A2) using HepaRG (AID 2283479)
Conditions: mRNA level, 48 h; actives raise or lower the signal
Activity calls are given as the source filed them. The calls were made as follows: active = hit-call score of the fitted dose curve at least 0.9, where 1 is the maximum; inactive = score below 0.9.
Outcome codes: yes (1) = active, no (0) = inactive

| compound | assigned category |
| --- | --- |
| O=C(O)c1ccccc1 | no (0) |
| CN(C)C(=O)Nc1ccc(Cl)c(Cl)c1 | yes (1) |
| Cc1nn(C)c(Oc2ccccc2)c1C=NOCc1ccc(C(=O)OC(C)(C)C)cc1 | yes (1) |
| CC(C)(c1ccc(O)cc1)c1ccc(O)cc1 | yes (1) |
| CC1(C)C(C=C(Cl)Cl)C1C(=O)OCc1cccc(Oc2ccccc2)c1 (stereo unspecified) | yes (1) |
| CCCCCCC(C)OC(=O)COc1nc(F)c(Cl)c(N)c1Cl (stereo unspecified) | no (0) |

* * *

Read-out: Protein phosphatase 2A (PPP2R4), PTPA (gene 5524)
Experiment: LTEA_HepaRG_PPP2R4: Life Technologies and Expression Analysis (LTEA) Assay for Protein phosphatase 2A (PPP2R4) using HepaRG (AID 2283522)
Details: mRNA level, 48 h; actives raise or lower the signal
Active and inactive are the calls of the source. The calls were made as follows: active = hit-call score of the fitted dose curve at least 0.9, where 1 is the maximum; inactive = score below 0.9.
Outcome codes: active, inactive

| structure string | assigned category |
| --- | --- |
| COc1c(Cl)ccc(Cl)c1C(=O)O | inactive |
| CCCOC(=O)c1ccc(C(=O)OCCC)nc1 | inactive |
| Cc1nn(C)c(Oc2ccccc2)c1C=NOCc1ccc(C(=O)OC(C)(C)C)cc1 | active |
